# TARGET: fatty acid amide hydrolase (FAAH) (Rattus norvegicus, UniProt P97612)
# Construct: rat FAAH overexpressed in HEK293 cells (HEK293-rFAAH), crude protein
# Sequence (P97612 whole entry): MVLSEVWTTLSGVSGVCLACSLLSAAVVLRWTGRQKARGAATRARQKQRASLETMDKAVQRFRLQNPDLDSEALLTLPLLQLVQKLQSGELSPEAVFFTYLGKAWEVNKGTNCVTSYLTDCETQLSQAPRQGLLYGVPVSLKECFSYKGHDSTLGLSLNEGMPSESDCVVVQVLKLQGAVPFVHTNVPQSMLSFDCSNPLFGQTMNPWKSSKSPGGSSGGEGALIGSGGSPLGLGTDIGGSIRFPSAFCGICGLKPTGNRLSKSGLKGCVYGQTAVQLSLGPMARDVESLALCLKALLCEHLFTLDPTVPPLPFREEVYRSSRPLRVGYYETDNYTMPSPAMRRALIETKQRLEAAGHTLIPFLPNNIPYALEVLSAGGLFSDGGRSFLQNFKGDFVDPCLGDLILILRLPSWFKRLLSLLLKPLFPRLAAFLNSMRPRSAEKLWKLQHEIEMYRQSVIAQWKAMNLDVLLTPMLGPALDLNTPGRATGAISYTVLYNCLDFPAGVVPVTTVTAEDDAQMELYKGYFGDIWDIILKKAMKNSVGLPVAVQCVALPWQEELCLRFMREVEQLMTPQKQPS
# PROTOCOL_DETAILS: AEA hydrolysis by HPLC-MS in crude protein of carmofur-treated HEK293-rFAAH cells; dialysis reversibility test
RECORDED_METRIC: IC50 (nM)
Write the number in nM without appending the unit.

Requested field: IC50. Item: "CCCCCCNC(=O)n1cc(F)c(=O)[nH]c1=O"
110
